As an illustration, consider measured AC50 for molecules on Vasopressin V2 receptor (Homo sapiens).
Sequence (P30518 whole entry): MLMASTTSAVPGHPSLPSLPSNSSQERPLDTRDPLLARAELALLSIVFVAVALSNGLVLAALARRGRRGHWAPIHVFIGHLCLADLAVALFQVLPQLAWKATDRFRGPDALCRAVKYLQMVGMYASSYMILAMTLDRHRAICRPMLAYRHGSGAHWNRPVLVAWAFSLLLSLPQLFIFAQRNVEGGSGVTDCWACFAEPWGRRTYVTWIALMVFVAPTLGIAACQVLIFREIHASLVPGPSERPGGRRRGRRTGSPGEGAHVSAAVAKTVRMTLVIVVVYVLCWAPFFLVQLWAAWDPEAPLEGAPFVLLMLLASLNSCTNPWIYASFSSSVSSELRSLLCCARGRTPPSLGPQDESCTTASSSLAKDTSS

Molecule | AC50
NC(=O)c1ncn([C@@H]2O[C@H](CO)[C@@H](O)[C@H]2O)c1O [MIZORIBINE] | > 30 µM
C1COC(NC(C2CC2)C2CC2)=N1 [RILMENIDINE] | > 30 µM
CCNC(C)Cc1cccc(C(F)(F)F)c1 (stereo not given) [FENFLURAMINE] | > 30 µM

Tell me reported AC50 for C[C@H]1C[C@@H]2[C@H]([C@@H](O)C[C@@]3(C)[C@H]2CC[C@]3(O)C(=O)COC(=O)CCC(=O)O)[C@@]2(C)C=CC(=O)C=C12 [METHYLPREDNISOLONE HEMISUCCINATE] , tested with Vasopressin V2 receptor (Homo sapiens).
> 30 µM

Report AC50 for CN1CC[C@]23CCCC[C@H]2[C@H]1Cc1ccc(O)cc13 [LEVORPHANOL] tested on Vasopressin V2 receptor (Homo sapiens). Further: assay procedure not described here.
> 10 µM

// map C[C@H]1C[C@@H]2[C@H]([C@@H](O)C[C@@]3(C)[C@H]2CC[C@]3(O)C(=O)CO)[C@@]2(C)C=CC(=O)C=C12 [METHYLPREDNISOLONE] to recorded AC50 (system: Vasopressin V2 receptor (Homo sapiens)); further: assay procedure not described here
> 10 µM

Form field: AC50 recorded for CCCCN1CCCCC1C(=O)Nc1c(C)cccc1C (stereo not given) [BUPIVACAINE] with Vasopressin V2 receptor (Homo sapiens) (enter value)
> 30 µM

API: value(readout=AC50, system=Vasopressin V2 receptor (Homo sapiens)) for record CC(C)C(=O)Nc1ccc([N+](=O)[O-])c(C(F)(F)F)c1 [FLUTAMIDE]; further: assay procedure not described here
> 30 µM

Field: AC50 (Vasopressin V2 receptor (Homo sapiens)). Entry: CC(=O)NS(=O)(=O)c1ccc(N)cc1 [SULFACETAMIDE]
> 10 µM

Record NC(=O)C[S+]([O-])C(c1ccccc1)c1ccccc1 (stereo not given) [MODAFINIL] : what is its AC50 with Vasopressin V2 receptor (Homo sapiens)?
> 30 µM
